Measured IC50, listed per entry.
# subject_of_test: Axl (Homo sapiens (Human))
# Sequence (P30530 26-894): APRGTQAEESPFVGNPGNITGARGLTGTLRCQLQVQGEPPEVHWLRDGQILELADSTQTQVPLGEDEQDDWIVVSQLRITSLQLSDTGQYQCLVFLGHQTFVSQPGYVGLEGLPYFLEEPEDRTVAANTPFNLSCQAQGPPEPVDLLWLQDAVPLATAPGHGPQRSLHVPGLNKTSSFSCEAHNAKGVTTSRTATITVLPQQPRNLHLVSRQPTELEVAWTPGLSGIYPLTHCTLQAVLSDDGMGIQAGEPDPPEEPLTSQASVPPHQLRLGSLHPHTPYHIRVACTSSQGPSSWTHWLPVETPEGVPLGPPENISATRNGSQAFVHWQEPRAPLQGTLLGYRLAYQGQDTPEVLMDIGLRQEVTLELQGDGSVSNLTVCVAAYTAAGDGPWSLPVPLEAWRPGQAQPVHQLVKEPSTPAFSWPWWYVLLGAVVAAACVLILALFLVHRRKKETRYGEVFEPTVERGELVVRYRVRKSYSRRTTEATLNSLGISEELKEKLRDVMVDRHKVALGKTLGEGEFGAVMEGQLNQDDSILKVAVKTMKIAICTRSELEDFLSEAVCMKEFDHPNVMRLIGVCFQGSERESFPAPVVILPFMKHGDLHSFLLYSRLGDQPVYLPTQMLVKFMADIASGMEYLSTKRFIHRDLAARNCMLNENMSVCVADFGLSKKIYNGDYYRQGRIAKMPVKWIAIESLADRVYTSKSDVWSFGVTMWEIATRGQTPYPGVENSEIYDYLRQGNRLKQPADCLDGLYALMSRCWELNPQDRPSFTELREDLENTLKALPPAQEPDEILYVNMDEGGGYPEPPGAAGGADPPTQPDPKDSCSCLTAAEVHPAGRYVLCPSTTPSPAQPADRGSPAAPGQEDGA
# assay_info: Phospho-Akt in-cell Western assay (Axl-antibody cross-linking stimulation)
# Type: cell-based
# condition_notes: inhibition of Axl activity, phospho-Akt in-cell Western assay

These recorded examples may help you get a feel for the data.
Cc1csc2c(-n3nc(Nc4ccc(N5CCN([C@H]6CC7CCC6C7)CC5)cc4)nc3N)nc(C=CCN3CCN(C)CC3)nc12 (stereo partly shown) [Compound 240]: 1000 to 10000 nM
Cc1nnc(-n2nc(Nc3ccc(N4CCN([C@H]5CC6CCC5C6)CC4)c(Cl)c3)nc2N)c2sccc12 (stereo partly shown) [Compound 231]: < 1000 nM
COc1cc2cnc(-n3nc(Nc4ccc(N5CCN(C)CC5)cc4)nc3N)nc2cc1OC [Compound 180]: < 1000 nM
Cc1cc(Nc2nc(N)n(-c3nc(Cl)nc4c(C)csc34)n2)ccc1N1CCN(C2CC3CCC2C3)CC1 (stereo not shown) [Compound 225]: < 1000 nM

Report IC50, nothing else, for this molecule: CN1CCN(c2ccc(Nc3nc(N)n(-c4ncnc5ccc(Cl)cc45)n3)cc2)CC1 [Compound 85]
< 1000 nM

Report IC50, nothing else, for this molecule: COc1cc2ncnc(-n3nc(Nc4ccc(N5CCN(C6CC7CCC6C7)CC5)c(F)c4)nc3N)c2cc1OC (stereo not shown) [Compound 123]
> 20000 nM

Report IC50, nothing else, for this molecule: COc1cc2ccnc(-n3nc(Nc4ccc(N5CCN(C6CCCCCC6)CC5)cc4)nc3N)c2cc1OC [Compound 126]
< 1000 nM
